# target-entity: Cytochrome P450 2C9 (Homo sapiens) (UniProt P11712)
# Sequence (P11712 whole entry, looked up): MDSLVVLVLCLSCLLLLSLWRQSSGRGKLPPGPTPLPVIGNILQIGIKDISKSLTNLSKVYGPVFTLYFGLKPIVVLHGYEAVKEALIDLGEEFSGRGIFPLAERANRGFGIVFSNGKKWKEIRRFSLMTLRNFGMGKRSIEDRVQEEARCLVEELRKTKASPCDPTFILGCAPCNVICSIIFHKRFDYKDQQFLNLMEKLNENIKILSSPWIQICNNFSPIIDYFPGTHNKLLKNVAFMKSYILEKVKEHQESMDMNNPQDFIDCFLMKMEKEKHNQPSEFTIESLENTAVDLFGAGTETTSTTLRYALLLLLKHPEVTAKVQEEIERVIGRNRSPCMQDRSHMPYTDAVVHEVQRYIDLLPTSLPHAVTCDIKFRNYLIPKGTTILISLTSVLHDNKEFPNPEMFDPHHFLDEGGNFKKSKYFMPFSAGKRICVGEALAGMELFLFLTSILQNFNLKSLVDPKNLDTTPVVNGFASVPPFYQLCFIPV
# assay-name: Cytochrome P450 family 2 subfamily C member 9 (CYP2C9) small molecule antagonists: luciferase biochemical (cell-free) qHTS assay (AID 1645842); further: nearly all actives have a fitted effect of over 55% in size
# test-parameters: P450-Glo CYP2C9 enzyme assay, luciferin luminescence; series mostly up to 57.4 µM
Records with an inconclusive call do not appear. The source made the active and inactive calls. The call rests on the fitted dose curve; in most records, active means well fitted inhibition curve with a large enough effect in the repeat runs; inconclusive means weak or mixed curves; inactive means no such curve, though single readings can be large or run the other way.
Classes used: active, inactive

* O=C(CCl)Nc1cccc(NC2=NS(=O)(=O)c3ccccc32)c1 | active
* CCC(C)CNCC(=O)N1CCc2sccc2C1COc1cccc(C)c1 (stereo not given) | active
* CC(C)c1cc(-c2ccc(F)c3ccccc23)nc(N)n1 | active
* FC(F)(F)c1ccccc1-c1cc(C(F)(F)F)c2nc(C3=NOC4(CCCCC4)C3)[nH]c2c1 | inactive
* Nc1cccc(CNC(=O)c2ccc(Oc3ccc(OCc4cccc(F)c4)cc3)nc2)c1 | active

###

# target-entity: Cytochrome P450 2C9 (Homo sapiens) (UniProt P11712)
# assay-name: Cytochrome P450 family 2 subfamily C member 9 (CYP2C9) small molecule antagonists: luciferase biochemical (cell-free) qHTS assay (AID 1645842); further: nearly all actives have a fitted effect of over 55% in size
# test-parameters: P450-Glo CYP2C9 enzyme assay, luciferin luminescence; series mostly up to 57.4 µM
Results filed as inconclusive are left out. Calls of active or inactive are those of the source. Calls come from the whole dose curve; as a rule, active = well fitted inhibition curve with a large enough effect in the repeat runs; inconclusive = weak or mixed curves; inactive = no such curve, though single readings can be large or run the other way.
Classes used: active, inactive

- Cc1nc(Nc2ccc(F)cc2)nc(N2CCc3ccccc3C2C)c1C (stereo not given): active
- CCS(=O)c1nc(-c2cccc(OCc3ccccc3)c2)cc(C(F)(F)F)n1 (stereo not given): active
- CN1CCC(NC(=O)c2cc(-c3c(O)cc(O)cc3Oc3ccc([N+](=O)[O-])cc3)on2)CC1: active
- O=S(=O)(NCc1cccc2ccccc12)c1cc(Cl)c(Oc2cccc(N3CCNCC3)c2)s1: active
- Cc1ccc(S(=O)(=O)NCc2ccc(C(=O)NCCN(Cc3ccccc3)C(C)C)cc2)cc1: active
- COC(=O)c1ccc2c(c1)nc(NC(=O)c1ccccc1)n2CCCc1ccccc1: active
- O=S(=O)(c1ccc(Cl)cc1)N1CCN(c2ccnc3cc(Cl)ccc23)CC1: active
- CC(C)c1ccc(NC(=O)c2cccs2)c(-c2nc3ccccc3[nH]c2=O)c1: active
- CN1CCN(Cc2ccc(NC(=O)Cc3ccc(Oc4cc(NC(=O)C5CC5)ncn4)cc3)cc2C(F)(F)F)CC1: active
- O=C(OC1CN2CCC1CC2)N1CCc2ccccc2C1c1ccccc1 (stereo not given): inactive
- COc1cc(CN(CCN)C(=O)c2cccs2)ccc1OCc1ccccc1: active
- Fc1ccc2c(CCNCc3cccc(OCC(F)(F)C(F)F)c3)c[nH]c2c1: active
- Cc1[nH]cnc1C[C@H]1CCc2c(C)c3ccccc3n2C1=O: active
- CN(C)c1ccnc2sc3c(=O)n(N4CCCCCC4)cnc3c12: active
- Cc1ccc(N2CCN(S(=O)(=O)N3CCCCC3)CC2)c(C)c1: active
- CC(C)(C)c1ccc(-c2nc3c(N4CCN(Cc5ccc6nccnc6c5)CC4)cccc3[nH]2)cc1: active
- Cc1nnc(-c2ccc(-c3ccc(C(=O)Nc4ccc(O)c(N5CCN(C)CC5)c4)cc3)c(C)c2)o1: inactive
- CCOc1cccc(NC(=O)c2ccc(N3CCCC3)c(C(F)(F)F)c2)c1: inactive
- O=S1(=O)CCN(Cc2cc(NCC3CCOCC3)c3[nH]c(-c4ccccc4)cc3c2)CC1: active
- Nc1ncnc2c1c(-c1ccc(Cl)cc1)nn2-c1cccc(-c2cnnn2Cc2cccc(-c3ccccc3)c2)c1: active
